Provenance of the data: the supplement of paper PMC7595190

- System: CMK
- test.protocol: CellTox Green cytotoxicity fluorescence relative to DMSO vehicle (fold of vehicle RFU); higher = more cell death (loss of membrane integrity), active = 2 or more
- details: 0.01 µM; 24 h
assay.metric: CellTox Green cytotoxicity fluorescence

// below: answered compounds
{"compound": "COC(=O)[C@H](CCSC)NC(=O)c1ccc(NC[C@@H](N)CS)cc1-c1ccccc1", "assay.metric": "CellTox Green cytotoxicity fluorescence", "test.value": "0.934 (inactive)"}
{"compound": "CCOc1cc(C(C)(C)C)ccc1C1=N[C@@](C)(c2ccc(Cl)cc2)[C@@](C)(c2ccc(Cl)cc2)N1C(=O)N1CCN(CCCS(C)(=O)=O)CC1", "assay.metric": "CellTox Green cytotoxicity fluorescence", "test.value": "0.987 (inactive)"}
{"compound": "CCC(CC)n1ccc2c(C(=O)NCc3c(C)cc(C)[nH]c3=O)cc(C#N)cc21", "assay.metric": "CellTox Green cytotoxicity fluorescence", "test.value": "0.768 (inactive)"}

-- ask Item: COc1ccc(CCNCc2ccc(OCc3ccc(Cl)nc3)c(OC)c2)cc1OC Test system: CMK Read-out: CellTox Green cytotoxicity fluorescence Value: ?
-- reply 0.968 (inactive)

-- ask Record: CCOC(=O)C1=C(N)Oc2ccc(Br)cc2C1C(C#N)C(=O)OCC (stereo unspecified)
-- reply 0.931 (inactive)

-- ask Record: Nc1ccccc1NC(=O)c1cnccn1
-- reply 0.987 (inactive)

* * *

- Test system: MV4-11
- test.protocol: CellTox Green cytotoxicity fluorescence relative to DMSO vehicle (fold of vehicle RFU); higher = more cell death (loss of membrane integrity), active = 2 or more
- details: 0.1 µM; 24 h
Please use rule met whenever CellTox Green cytotoxicity fluorescence is not below 1, and rule not met whenever it is.

{"compound": "CC(C)CC(NC(=O)C(Cc1ccccc1)CC(O)C(Cc1ccccc1)NC(=O)OC(C)(C)C)C(=O)NC(Cc1ccccc1)C(N)=O (configuration not stated)", "group": "rule not met"}

-- ask Given the entry CCCCNc1ncc2c(-c3ccc(CN4CCN(C)CC4)cc3)cn([C@H]3CC[C@H](O)CC3)c2n1 , answer whether its CellTox Green cytotoxicity fluorescence meets or surpasses 1.
-- reply rule met

-- ask Record: CC(=O)O/N=C1/C(c2c(O)[nH]c3cc(Br)ccc23)=Nc2ccccc21
-- reply rule met

-- ask Record: CCOc1cc(C(C)(C)C)ccc1C1=N[C@@](C)(c2ccc(Cl)cc2)[C@@](C)(c2ccc(Cl)cc2)N1C(=O)N1CCN(CCCS(C)(=O)=O)CC1
-- reply rule met

* * *

- Test system: CMK
- test.protocol: CellTox Green cytotoxicity fluorescence relative to DMSO vehicle (fold of vehicle RFU); higher = more cell death (loss of membrane integrity), active = 2 or more
- details: 1 µM; 48 h
Please use label 1 whenever CellTox Green cytotoxicity fluorescence is not below 1, and label 0 whenever it is.

{"compound": "c1ccc2c(CCNc3ccc(Nc4ccncc4)cc3)c[nH]c2c1 [Serdemetan]", "experimental.target": "CMK", "group": "label 1"}
{"compound": "N#Cc1ccc(-c2c(-c3ncn[nH]3)sc(N3CCOCC3)c2C#N)c(F)c1", "experimental.target": "CMK", "group": "label 1"}
{"compound": "Cc1c(C(=O)Nc2ccc(Oc3ccnc4[nH]cc(-c5ccccc5)c34)c(F)c2)c(=O)n(-c2ccc(F)cc2)n1C", "experimental.target": "CMK", "group": "label 0"}
{"compound": "CC(C)c1ccccc1Cc1cc(C(=O)Nc2ccc(S(=O)(=O)c3ccccc3C(C)(C)C)cc2)c(O)c(O)c1O", "experimental.target": "CMK", "group": "label 1"}

Shift focus to the following entry.
-- ask Given the entry CC(C)(C)C[C@@H]1N[C@@H](C(=O)N[C@H]2CC[C@H](O)CC2)[C@H](c2cccc(Cl)c2F)[C@]12C(=O)Nc1cc(Cl)ccc12 , answer whether its CellTox Green cytotoxicity fluorescence meets or surpasses 1.
-- reply label 1

* * *

- Test system: Kasumi-1
- test.protocol: CellTox Green cytotoxicity fluorescence relative to DMSO vehicle (fold of vehicle RFU); higher = more cell death (loss of membrane integrity), active = 2 or more
- details: 1 µM; 48 h
Please use 1.0 whenever CellTox Green cytotoxicity fluorescence is not below 1, and 0.0 whenever it is.

Known results for compounds:
{"compound": "C[C@H]1Oc2cc(cnc2N)-c2c(nn(C)c2C#N)CN(C)C(=O)c2ccc(F)cc21", "group": 0.0}
{"compound": "CCS(=O)(=O)N1CCN(c2ccc(Nc3ncc(C(N)=O)c(NC4CC4)n3)cc2)CC1 [Cerdulatinib]", "group": 1.0}
{"compound": "CC1(C)CC[C@]2(NC(=O)C(C)(F)F)CC[C@]3(C)[C@H](C(=O)C=C4[C@@]5(C)C=C(C#N)C(=O)C(C)(C)[C@@H]5CC[C@]43C)[C@@H]2C1 [Omaveloxolone]", "group": 1.0}
{"compound": "O=C(NS(=O)(=O)c1ccc(Br)s1)c1ccc(Cl)cc1Cl [Tasisulam]", "group": 0.0}
{"compound": "O=C(O)CSc1cc(NS(=O)(=O)c2ccc(Br)cc2)c2ccccc2c1O", "group": 1.0}
{"compound": "N#CC(=Cc1ccc(-c2cc(Cl)ccc2Cl)o1)C(=O)Nc1cccc2ncccc12", "group": 0.0}

-- ask Given the entry CC(=O)N1c2ccc(-c3ccc(C(=O)O)cc3)cc2[C@H](Nc2ccc(Cl)cc2)C[C@@H]1C , answer whether its CellTox Green cytotoxicity fluorescence meets or surpasses 1.
-- reply 1.0

-- ask Record: CN[C@@H](C)C(=O)N[C@H](C(=O)N1CCC[C@H]1c1nc(C(=O)c2ccc(F)cc2)cs1)C1CCCCC1
-- reply 1.0

-- ask Record: CC(=O)O/N=C1/C(c2c(O)[nH]c3cc(Br)ccc23)=Nc2ccccc21 [BIO-acetoxime]
-- reply 1.0

* * *

CellTox Green cytotoxicity fluorescence by entry:
- System: CMK
- test.protocol: CellTox Green cytotoxicity fluorescence relative to DMSO vehicle (fold of vehicle RFU); higher = more cell death (loss of membrane integrity), active = 2 or more
- details: 0.1 µM; 48 h
Format: numeric value only, no unit, no commentary.

// below: answered compounds
{"molecule.smiles": "COc1ccc(C2=N[C@@H](c3ccc(Cl)cc3)[C@@H](c3ccc(Cl)cc3)N2C(=O)N2CCNC(=O)C2)c(OC(C)C)c1", "CellTox Green cytotoxicity fluorescence": 1.01}
{"molecule.smiles": "CC[C@H](NC(=O)[C@H](C)NC)C(=O)N1C[C@@H](O)C[C@H]1Cc1c(-c2[nH]c3cc(F)ccc3c2C[C@@H]2C[C@H](O)CN2C(=O)[C@H](CC)NC(=O)[C@H](C)NC)[nH]c2cc(F)ccc12", "CellTox Green cytotoxicity fluorescence": 0.996}

Next:
-- ask Please report the recorded CellTox Green cytotoxicity fluorescence for CC(C)[C@H](CO)Nc1nc(Nc2cccc(Cl)c2)c2ncn(C(C)C)c2n1 .
-- reply 1

* * *

CellTox Green cytotoxicity fluorescence by entry:
- Test system: MV4-11
- test.protocol: CellTox Green cytotoxicity fluorescence relative to DMSO vehicle (fold of vehicle RFU); higher = more cell death (loss of membrane integrity), active = 2 or more
- details: 1 µM; 48 h
Format: numeric value only, no unit, no commentary.

-- ask Please report the recorded CellTox Green cytotoxicity fluorescence for COC(=O)[C@H](CCSC)NC(=O)c1ccc(NC[C@@H](N)CS)cc1-c1ccccc1 .
-- reply 0.931

-- ask Record: COc1nc(-c2ccc3c(c2)OCO3)n(-c2ccc(NC(=O)CSc3ccccc3)cc2)n1 [SecinH3]
-- reply 1.03

-- ask Record: CCOc1cc(C(C)(C)C)ccc1C1=N[C@@](C)(c2ccc(Cl)cc2)[C@@](C)(c2ccc(Cl)cc2)N1C(=O)N1CCN(CCCS(C)(=O)=O)CC1
-- reply 1.63

-- ask Record: CCCCC(C=O)NC(=O)C(CC(C)C)NC(=O)C(CC(C)C)NC(C)=O (stereo not given)
-- reply 2.16

-- ask Record: CC(=O)O/N=C1/C(c2c(O)[nH]c3cc(Br)ccc23)=Nc2ccccc21 [BIO-acetoxime]
-- reply 1.2

* * *

- System: MV4-11
- test.protocol: CellTox Green cytotoxicity fluorescence relative to DMSO vehicle (fold of vehicle RFU); higher = more cell death (loss of membrane integrity), active = 2 or more
- details: 1 µM; 72 h
// one of class 1 for active, class 0 for inactive, no free text

Known results for compounds:
{"molecule.smiles": "Nc1ccccc1NC(=O)c1cnccn1", "group": "class 0"}
{"molecule.smiles": "NS(=O)(=O)C#Cc1ccccc1", "group": "class 0"}
{"molecule.smiles": "CN1CCN(CCCNc2ncc(Cl)c(-c3cc4c(C(=O)NC5CC5)cccc4s3)n2)CC1", "group": "class 0"}
{"molecule.smiles": "FC(F)(F)c1ccc(CNc2ccc(Cc3c[nH]c4ncc(Cl)cc34)cn2)cn1", "group": "class 0"}
{"molecule.smiles": "CN(C)CC[C@H](CSc1ccccc1)Nc1ccc(S(=O)(=O)NC(=O)c2ccc(N3CCN(Cc4ccccc4-c4ccc(Cl)cc4)CC3)cc2)cc1[N+](=O)[O-]", "group": "class 1"}

Shift focus to the following entry.
-- ask Query: recorded result category for Cn1cc(-c2ccc3c(c2)CCN3C(=O)Cc2cccc(C(F)(F)F)c2)c2c(N)ncnc21 in this test
-- reply class 0
